Would you kindly list normalized RNA/DNA level with ligand (log10) for each of these variants?
B1: library; a variant is named by its letters at N, in order (parent)
chain: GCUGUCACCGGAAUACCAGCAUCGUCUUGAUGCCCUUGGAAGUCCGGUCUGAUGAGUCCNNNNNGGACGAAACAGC

Variants of: B1
experiment_description: normalized RNA/DNA level with ligand (relative to sTRSVctl = 100) (log10 (% of sTRSVctl)); higher = less ribozyme self-cleavage, higher mRNA level
condition_info: ligand concentration (+) RNA-Seq: 5 mM, HEK293T, reporter: mCherry (pCS4076), ligand present: yes

Data point: `GCAUU` ; normalized RNA/DNA level with ligand (log10) = 1.94

Data point: `AUCUA` ; normalized RNA/DNA level with ligand (log10) = 1.99

Data point: `GUAUU` ; normalized RNA/DNA level with ligand (log10) = 2.01
